Data provenance: patent US7868026B2

# target_system: CYP3A4 (Homo sapiens)
# Sequence (P08684 whole entry): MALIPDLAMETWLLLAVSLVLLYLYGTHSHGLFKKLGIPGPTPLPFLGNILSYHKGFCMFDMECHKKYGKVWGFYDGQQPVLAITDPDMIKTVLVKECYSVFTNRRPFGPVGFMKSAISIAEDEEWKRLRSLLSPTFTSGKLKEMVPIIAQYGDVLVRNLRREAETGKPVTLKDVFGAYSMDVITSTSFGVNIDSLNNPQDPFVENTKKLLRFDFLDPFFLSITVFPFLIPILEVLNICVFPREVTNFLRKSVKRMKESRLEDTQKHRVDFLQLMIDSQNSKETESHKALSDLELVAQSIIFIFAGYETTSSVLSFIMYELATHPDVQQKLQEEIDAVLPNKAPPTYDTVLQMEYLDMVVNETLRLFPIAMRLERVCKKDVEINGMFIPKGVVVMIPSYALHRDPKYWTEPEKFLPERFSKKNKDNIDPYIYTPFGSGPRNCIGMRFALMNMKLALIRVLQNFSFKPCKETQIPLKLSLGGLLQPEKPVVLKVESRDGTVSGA
# protocol_notes: Determination of IC50 against CYP3A4 by measurement of inhibition of testosterone metabolism (human liver microsomes, 6-β-OH-testosterone by LC-MS/MS)
# Format: biochemical
# Design: 0.1 mg/mL human liver microsomes
# condition_context: read-out: IC50 (Testo.)
pIC50: −log10 of the molar value.
parameter_measured: pIC50

As a guide, the following entries are already answered.
>>> recorded_result("COc1cncc(NS(=O)(=O)c2ccccc2C(=O)NCc2cc(Cl)ccc2F)c1")
7.80
>>> recorded_result("Cc1cncc(NS(=O)(=O)c2ccccc2C(=O)NCCOc2ccccc2)c1")
7.43
>>> recorded_result("CCCN(CC1CC1)C(=O)c1ccccc1S(=O)(=O)Nc1cncc(OC)c1")
7.15

(P) CCOc1cncc(NS(=O)(=O)c2ccccc2C(=O)NC(C)C2CC2)c1 (stereo not shown)
(Q) COc1ccncc1NS(=O)(=O)c1ccccc1C(=O)N(C)C(C)C
(R) Cc1cncc(NS(=O)(=O)c2ccccc2C(=O)N(C)Cc2ccccc2)c1
(S) CCOCCNC(=O)c1ccccc1S(=O)(=O)Nc1cnccc1OC
(T) CC1CC(C)CN(C(=O)c2ccccc2S(=O)(=O)N(C)c2cccnc2)C1 (stereo not shown)
Exam item: list the entries in increasing order of pIC50. Quick reminder: the answer is the labels in the order asked.
S, Q, T, P, R
(S: 6.13, Q: 6.47, T: 7.00, P: 7.28, R: 7.55)
